Target: voltage-gated sodium channel Nav1.7 (Homo sapiens (Human), UniProt Q15858)
Sequence (Q15858 whole entry): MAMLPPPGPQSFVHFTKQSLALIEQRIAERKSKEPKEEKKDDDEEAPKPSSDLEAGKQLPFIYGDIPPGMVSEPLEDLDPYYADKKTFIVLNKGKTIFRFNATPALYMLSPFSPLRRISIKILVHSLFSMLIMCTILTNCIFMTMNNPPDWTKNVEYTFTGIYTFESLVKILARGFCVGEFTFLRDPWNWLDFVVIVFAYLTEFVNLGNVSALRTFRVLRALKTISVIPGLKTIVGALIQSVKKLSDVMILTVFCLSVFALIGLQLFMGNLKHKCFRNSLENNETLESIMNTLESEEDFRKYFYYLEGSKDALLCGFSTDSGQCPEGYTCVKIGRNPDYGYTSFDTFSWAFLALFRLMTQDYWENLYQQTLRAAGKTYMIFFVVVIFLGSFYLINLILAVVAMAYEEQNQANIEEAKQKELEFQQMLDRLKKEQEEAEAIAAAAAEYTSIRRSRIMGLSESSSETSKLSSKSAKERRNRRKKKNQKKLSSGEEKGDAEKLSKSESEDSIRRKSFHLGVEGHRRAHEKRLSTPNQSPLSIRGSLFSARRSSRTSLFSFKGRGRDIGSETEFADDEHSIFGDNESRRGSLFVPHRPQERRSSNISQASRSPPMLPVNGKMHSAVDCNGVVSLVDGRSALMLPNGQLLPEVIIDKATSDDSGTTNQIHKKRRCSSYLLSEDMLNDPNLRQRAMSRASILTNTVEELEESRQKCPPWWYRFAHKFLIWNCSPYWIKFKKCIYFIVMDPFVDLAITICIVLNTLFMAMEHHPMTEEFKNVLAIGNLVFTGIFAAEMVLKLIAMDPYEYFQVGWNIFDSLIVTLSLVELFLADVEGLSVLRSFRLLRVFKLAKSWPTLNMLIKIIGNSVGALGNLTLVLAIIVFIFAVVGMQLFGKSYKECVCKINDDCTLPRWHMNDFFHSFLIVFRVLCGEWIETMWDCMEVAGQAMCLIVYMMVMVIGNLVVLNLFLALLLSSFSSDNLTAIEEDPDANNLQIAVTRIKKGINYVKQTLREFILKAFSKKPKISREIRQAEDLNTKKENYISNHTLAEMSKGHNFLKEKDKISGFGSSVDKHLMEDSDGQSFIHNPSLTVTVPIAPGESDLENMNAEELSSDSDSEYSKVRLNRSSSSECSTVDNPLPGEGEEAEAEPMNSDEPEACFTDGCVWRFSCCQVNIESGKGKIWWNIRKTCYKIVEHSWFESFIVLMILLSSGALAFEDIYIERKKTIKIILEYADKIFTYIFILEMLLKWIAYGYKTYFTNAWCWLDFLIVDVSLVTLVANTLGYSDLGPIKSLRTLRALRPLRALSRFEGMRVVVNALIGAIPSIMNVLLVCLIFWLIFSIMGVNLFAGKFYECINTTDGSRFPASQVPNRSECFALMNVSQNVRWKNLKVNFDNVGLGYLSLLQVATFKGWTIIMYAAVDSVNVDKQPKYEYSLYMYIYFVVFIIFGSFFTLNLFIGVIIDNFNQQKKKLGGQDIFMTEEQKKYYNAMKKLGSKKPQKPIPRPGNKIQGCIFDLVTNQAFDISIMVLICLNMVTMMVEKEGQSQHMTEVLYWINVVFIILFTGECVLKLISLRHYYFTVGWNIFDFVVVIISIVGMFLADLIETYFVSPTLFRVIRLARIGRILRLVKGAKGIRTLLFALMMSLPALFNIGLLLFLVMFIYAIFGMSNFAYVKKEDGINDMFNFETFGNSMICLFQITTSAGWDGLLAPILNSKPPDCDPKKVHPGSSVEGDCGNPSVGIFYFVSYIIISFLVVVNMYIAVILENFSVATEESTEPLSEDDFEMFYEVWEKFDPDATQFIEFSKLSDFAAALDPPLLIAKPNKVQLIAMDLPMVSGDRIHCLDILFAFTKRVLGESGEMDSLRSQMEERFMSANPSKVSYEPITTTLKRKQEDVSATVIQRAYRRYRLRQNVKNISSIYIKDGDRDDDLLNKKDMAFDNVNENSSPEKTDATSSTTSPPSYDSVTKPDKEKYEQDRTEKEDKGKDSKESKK
Assay: Nav1.7 screening assay, IonWorks Quattro automated patch-clamp electrophysiology
Details: stable cell line expressing Nav1.7; holding potential −100 mV; compound incubation 5 minutes; IC50 fitted to percent block; read-out: Nav 1.7 IC50
value-type: pIC50
// pIC50 here means minus log10 of the molar concentration (mol/L)

Study these solved cases before continuing.
Cc1nn(-c2ccccc2F)c(N)c1C(=O)Nc1ccc(C(F)(F)F)cn1 6.40
Nc1c(C(=O)Nc2ccc(Cl)cn2)cnn1-c1ccccc1-c1cccnc1 6.15
Cc1c(F)cccc1-n1cnc(C(=O)Nc2ccc(C(F)(F)F)cn2)c1N 6.70

Q. Return reported pIC50; argument: Nc1c(C(=O)Nc2ccc(C(F)(F)F)cn2)cnn1-c1ccccc1O
A. 6.52

Q. Return reported pIC50; argument: CCc1nn(-c2ccccc2OC)c(N)c1C(=O)Nc1ccc(C(F)(F)F)cn1
A. 6.40

Q. Return reported pIC50; argument: COc1ccccc1-n1ncc(C(=O)Nc2ccc(Cl)cc2)c1N
A. 6.15

Q. Return reported pIC50; argument: Cc1nn(-c2cccc(F)c2C)c(N)c1C(=O)Nc1ccc(Cl)cn1
A. 6.22

Q. Return reported pIC50; argument: Cc1c(F)cccc1-n1ncc(C(=O)N2CCc3cc(Cl)ccc32)c1N
A. 6.10

Q. Return reported pIC50; argument: COCCOc1ccccc1-n1nc(C)c(C(=O)Nc2ccc(C(F)(F)F)cc2F)c1N
A. 6.15

###

Biological target: voltage-gated sodium channel Nav1.5 (Homo sapiens (Human))
Sequence (Q14524 whole entry): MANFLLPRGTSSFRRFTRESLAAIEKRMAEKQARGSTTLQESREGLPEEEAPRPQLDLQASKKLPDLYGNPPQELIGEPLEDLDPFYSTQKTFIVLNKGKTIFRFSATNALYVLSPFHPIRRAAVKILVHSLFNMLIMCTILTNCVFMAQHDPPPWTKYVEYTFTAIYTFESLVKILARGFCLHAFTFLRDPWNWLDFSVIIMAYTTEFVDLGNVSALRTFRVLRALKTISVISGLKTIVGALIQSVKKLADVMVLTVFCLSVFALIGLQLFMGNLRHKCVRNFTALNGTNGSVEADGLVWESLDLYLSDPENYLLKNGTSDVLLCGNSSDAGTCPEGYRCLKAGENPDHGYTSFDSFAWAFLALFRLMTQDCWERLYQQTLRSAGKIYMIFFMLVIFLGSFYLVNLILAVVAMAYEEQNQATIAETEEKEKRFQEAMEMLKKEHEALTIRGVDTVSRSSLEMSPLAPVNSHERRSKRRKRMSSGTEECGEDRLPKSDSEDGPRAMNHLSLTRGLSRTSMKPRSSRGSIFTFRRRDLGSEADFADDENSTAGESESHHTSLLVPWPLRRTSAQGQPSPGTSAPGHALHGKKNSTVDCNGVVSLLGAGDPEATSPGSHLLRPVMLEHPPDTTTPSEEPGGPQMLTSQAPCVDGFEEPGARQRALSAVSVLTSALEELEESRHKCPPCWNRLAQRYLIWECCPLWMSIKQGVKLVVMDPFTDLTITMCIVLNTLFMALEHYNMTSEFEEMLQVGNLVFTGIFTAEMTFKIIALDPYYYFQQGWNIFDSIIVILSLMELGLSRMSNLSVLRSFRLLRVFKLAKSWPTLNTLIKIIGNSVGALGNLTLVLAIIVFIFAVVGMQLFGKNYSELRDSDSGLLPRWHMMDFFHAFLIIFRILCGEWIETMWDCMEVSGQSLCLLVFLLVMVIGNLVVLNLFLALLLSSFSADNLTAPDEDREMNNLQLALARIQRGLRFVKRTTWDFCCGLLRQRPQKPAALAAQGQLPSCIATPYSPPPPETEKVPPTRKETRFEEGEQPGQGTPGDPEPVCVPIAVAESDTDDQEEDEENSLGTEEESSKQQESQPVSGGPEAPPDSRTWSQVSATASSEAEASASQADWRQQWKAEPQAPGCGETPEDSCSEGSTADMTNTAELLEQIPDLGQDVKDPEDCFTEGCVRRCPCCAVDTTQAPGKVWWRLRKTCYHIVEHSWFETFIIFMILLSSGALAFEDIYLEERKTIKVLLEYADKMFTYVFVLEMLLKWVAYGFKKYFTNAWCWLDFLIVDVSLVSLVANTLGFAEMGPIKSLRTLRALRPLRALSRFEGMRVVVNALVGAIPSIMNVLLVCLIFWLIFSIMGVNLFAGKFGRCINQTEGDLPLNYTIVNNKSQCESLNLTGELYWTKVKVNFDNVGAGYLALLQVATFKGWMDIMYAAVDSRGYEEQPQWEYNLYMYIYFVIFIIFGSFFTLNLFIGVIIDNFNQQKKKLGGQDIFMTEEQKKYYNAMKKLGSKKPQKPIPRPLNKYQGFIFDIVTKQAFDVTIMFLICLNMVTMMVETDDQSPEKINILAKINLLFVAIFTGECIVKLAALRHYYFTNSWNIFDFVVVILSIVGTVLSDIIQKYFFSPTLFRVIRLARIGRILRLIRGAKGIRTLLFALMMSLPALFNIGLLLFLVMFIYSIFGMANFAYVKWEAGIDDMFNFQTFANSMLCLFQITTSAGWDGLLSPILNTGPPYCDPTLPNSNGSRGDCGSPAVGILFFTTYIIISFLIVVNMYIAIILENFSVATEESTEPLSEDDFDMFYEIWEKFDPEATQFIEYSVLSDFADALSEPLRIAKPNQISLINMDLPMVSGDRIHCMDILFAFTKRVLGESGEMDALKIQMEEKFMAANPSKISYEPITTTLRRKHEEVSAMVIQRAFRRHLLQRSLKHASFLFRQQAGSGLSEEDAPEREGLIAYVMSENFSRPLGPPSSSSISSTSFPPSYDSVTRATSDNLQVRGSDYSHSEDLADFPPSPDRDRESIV
Assay: Nav1.5 screening assay, IonWorks Quattro automated patch-clamp electrophysiology
Format: cell-based
Conditions: stable cell line expressing Nav1.5; holding potential −120 mV; compound incubation 5 minutes; IC50 fitted to percent block; read-out: Nav 1.5 IC50
pIC50: −log10 of the molar value.
value-type: pIC50

Cc1ccccc1-n1ncc(C(=O)Nc2ccc(Cl)cc2F)c1N < 4.48
COc1ccccc1-n1ncc(C(=O)N2CCc3cc(Cl)ccc32)c1N 4.55
COc1ccccc1-n1cnc(C(=O)Nc2ccc(Cl)cc2)c1N < 4.48
Nc1c(C(=O)Nc2ccc(C(F)(F)F)cn2)cnn1-c1ccccc1O < 4.48
COc1cc(-c2ccccc2-n2ncc(C(=O)Nc3ccc(Cl)cn3)c2N)ccn1 < 4.48
COCCOc1ccccc1-n1nc(C)c(C(=O)Nc2ccc(C(F)(F)F)cc2F)c1N < 4.48
Cc1nn(-c2cccc(F)c2C)c(N)c1C(=O)Nc1ccc(Cl)cn1 < 4.48
CCc1nn(-c2cccc(F)c2C)c(N)c1C(=O)Nc1ccc(C(F)(F)F)cn1 5.00

Q. Return reported pIC50; argument: Cc1c(F)cccc1-n1ncc(C(=O)Nc2ccc(OC(F)(F)F)cn2)c1N
A. < 4.48

Q. Return reported pIC50; argument: Cc1nn(-c2ccccc2F)c(N)c1C(=O)Nc1ccc(C(F)(F)F)cn1
A. < 4.48

###

Molecular target: voltage-gated sodium channel Nav1.7 (Homo sapiens (Human), UniProt Q15858)
Assay: Nav1.7 screening assay, IonWorks Quattro automated patch-clamp electrophysiology
Conditions: stable cell line expressing Nav1.7; holding potential −100 mV; compound incubation 5 minutes; IC50 fitted to percent block; read-out: Nav 1.7 IC50
value-type: IC50 (nM)
Reply numerically in nM, unit not repeated.

Study these solved cases before continuing.
Cc1c(F)cccc1-n1nnc(C(=O)Nc2ccc(Cl)cn2)c1N 800
COc1ccccc1-n1ncc(C(=O)N2CCc3cc(Cl)ccc32)c1N 900
COc1ccccc1-n1cnc(C(=O)Nc2ccc(Cl)cc2)c1N 1900

Q. Give recorded IC50 with voltage-gated sodium channel Nav1.7 (Homo sapiens (Human), UniProt Q15858) for the following compound: Cc1ccccc1-n1ncc(C(=O)Nc2ccc(Cl)cc2F)c1N
A. 300

Q. Give recorded IC50 with voltage-gated sodium channel Nav1.7 (Homo sapiens (Human), UniProt Q15858) for the following compound: CCc1ccccc1-n1ncc(C(=O)Nc2ccc(OCC(F)(F)F)cn2)c1N
A. 1000

Q. Give recorded IC50 with voltage-gated sodium channel Nav1.7 (Homo sapiens (Human), UniProt Q15858) for the following compound: COc1cc(-c2ccccc2-n2ncc(C(=O)Nc3ccc(Cl)cn3)c2N)ccn1
A. 1000

Q. Give recorded IC50 with voltage-gated sodium channel Nav1.7 (Homo sapiens (Human), UniProt Q15858) for the following compound: CCc1nn(-c2cccc(F)c2C)c(N)c1C(=O)Nc1ccc(C(F)(F)F)cn1
A. 300

Q. Give recorded IC50 with voltage-gated sodium channel Nav1.7 (Homo sapiens (Human), UniProt Q15858) for the following compound: Cc1c(F)cccc1-n1ncc(C(=O)Nc2ccc(OC(F)(F)F)cn2)c1N
A. 500
